Hello, the source for this data is patent US11883398B2, in case you need it.

Subject of test: T1, mDPP4 (Mus musculus, UniProt P28843)
T1 construct: purchased Peprotech
Assay overview: DPP4 processing of recombinant chemokines (SELDI-TOF mass spectrometry)
Type: biochemical
Experimental context: 10 nM mDPP4, 30 min at 37° C.
Measured endpoint: susceptibility to DPP4 N-terminal truncation

Molecule: mCCL4: recombinant mouse chemokine (Peprotech) (protein, UniProt P14097 24-92, looked up) C-C motif chemokine 4: APMGSDPPTSCCFSYTSRQLHRSFVMDYYETSSLCSKPAVVFLTKRGRQICANPSEPWVTEYMSDLELN
Result: in vitro cleavage

Molecule: mCCL3: recombinant mouse chemokine (Peprotech) (protein, UniProt P10855 24-92, looked up) C-C motif chemokine 3: APYGADTPTACCFSYSRKIPRQFIVDYFETSSLCSQPGVIFLTKRNRQICADSKETWVQEYITDLELNA
Result: in vitro cleavage
